Where do these numbers come from? They come from patent US8378104B2.

pIC50: recorded values
system: pJNK in HCT-116 cells; experiment: Phospho-JNK (Thr183/Tyr185) Meso Scale ELISA assay, TNFα-stimulated HCT-116 cells; assay type: cell-based; details: Homo sapiens, read-out: mean HCT-116 pJNK ELISA IC50 (Col. B)
pIC50: −log10 of the molar value.

For orientation, consider the following solved cases.
[[record]]
smiles_representation = "CSc1ccc(-c2cc3c(-c4cnn(C5CCN(C(C)=O)CC5)c4)cnc(N)c3o2)cc1"
observed = "5.00 to 6.00"

[[record]]
smiles_representation = "Nc1ncc(-c2cnn(C3CCCCC3)c2)c2cc(-c3c[nH]c4cnccc34)oc12"
observed = "6.00 to 7.00"

[[record]]
smiles_representation = "CNc1ncc(-c2cnn([C@H]3CC[C@H](O)CC3)c2)c2cc(-c3csc4cnccc34)oc12"
observed = "> 7.00"


Kindly consider the entry below.
pJNK in HCT-116 cells pIC50 of "CC(=O)N1CCC(n2cc(-c3cnc(N)c4oc(-c5scc6c5OCCO6)cc34)cn2)CC1" is 6.00 to 7.00

---

Molecular target: TAK1-TAB1 fusion protein (Homo sapiens, UniProt O43318)
Construct: purchased Carna
Sequence (O43318 with tags, fused parts or gaps limits assumed): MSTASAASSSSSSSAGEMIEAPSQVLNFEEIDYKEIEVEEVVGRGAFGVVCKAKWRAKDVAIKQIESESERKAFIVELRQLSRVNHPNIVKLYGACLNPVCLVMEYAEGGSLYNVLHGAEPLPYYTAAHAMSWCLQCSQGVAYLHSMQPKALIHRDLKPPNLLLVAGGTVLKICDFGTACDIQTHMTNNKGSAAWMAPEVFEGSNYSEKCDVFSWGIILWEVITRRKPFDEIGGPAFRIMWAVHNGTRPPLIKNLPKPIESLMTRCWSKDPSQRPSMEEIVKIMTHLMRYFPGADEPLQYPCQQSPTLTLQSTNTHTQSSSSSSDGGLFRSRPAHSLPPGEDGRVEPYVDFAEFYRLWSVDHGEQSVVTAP
Test: TAK1 biochemical assay (AlphaScreen, GST-MAP2K7 substrate)
Conditions: TAK1-TAB1 fusion protein, GST-MAP2K7 substrate; read-out: mean TAK1 IC50 (Col. A)
Counter-ions that a name gives are not always drawn.
recorded-endpoint: IC50

[[record]]
compound = "CC(=O)N1CCC(n2cc(-c3cnc(N)c4oc(-c5ccc6scnc6c5)cc34)cn2)CC1"
observed = "100 to 1000 nM"

[[record]]
compound = "CC(=O)N1CCC(n2cc(-c3cnc(N)c4oc(-c5cccc6ccnn56)cc34)cn2)CC1"
observed = "100 to 1000 nM"

[[record]]
compound = "CC(=O)Nc1ccccc1-c1cc2c(-c3cnn(C4CCN(C(C)=O)CC4)c3)cnc(N)c2o1"
observed = "> 10000 nM"

[[record]]
compound = "Nc1ncc(-c2cnn([C@H]3CC[C@H](O)CC3)c2)c2cc(-c3cc(C(F)(F)F)cc(C(F)(F)F)c3)oc12"
observed = "> 10000 nM"

[[record]]
compound = "Nc1ncc(-c2cnn([C@H]3CC[C@H](O)CC3)c2)c2cc(-c3c(F)ccc4cnsc34)oc12 [Example 240, diformate salt]"
observed = "100 to 1000 nM"


Kindly consider the entry below.
// "CC(=O)N1CCC(n2cc(-c3cnc(N)c4oc(-c5c[nH]c6cnccc56)cc34)cn2)CC1" : IC50 value = < 100 nM
